Target: hNAMPT protein (Homo sapiens (Human))
Sequence (P43490 whole entry): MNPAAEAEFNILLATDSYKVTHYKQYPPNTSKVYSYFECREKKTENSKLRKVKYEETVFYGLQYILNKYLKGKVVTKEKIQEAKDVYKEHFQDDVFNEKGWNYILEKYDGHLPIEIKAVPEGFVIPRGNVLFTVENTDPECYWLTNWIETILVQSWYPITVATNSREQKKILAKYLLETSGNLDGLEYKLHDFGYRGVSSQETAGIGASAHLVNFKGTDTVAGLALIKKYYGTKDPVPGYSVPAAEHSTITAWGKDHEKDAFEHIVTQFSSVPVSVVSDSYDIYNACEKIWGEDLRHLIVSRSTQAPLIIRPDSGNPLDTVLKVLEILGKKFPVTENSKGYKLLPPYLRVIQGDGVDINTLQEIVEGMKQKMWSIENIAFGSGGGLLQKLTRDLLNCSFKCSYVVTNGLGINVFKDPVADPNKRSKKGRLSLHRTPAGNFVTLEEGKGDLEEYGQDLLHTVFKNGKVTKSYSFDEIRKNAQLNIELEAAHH
Assay: NAMPT enzyme assay (TR-FRET/HTRF, BodiPY ligand, anti 6His-Tb)
Type: binding
Settings: compound concentration 1 μM; read-out: Percent Inhibition
// n strictly below 90% in inhibition at 1 µM; y otherwise

Query :: Is inhibition at 1 µM at least 90%? Consider `O=C(NCCCc1ncc[nH]1)c1ccc2nc(-c3ccc(F)cc3)c(-c3cc(Cl)ccc3Cl)nc2c1`
Result :: y

Query :: Does `O=C(NCCCc1nccs1)c1ccc2nc(N3CCC(O)CC3)c(-c3ccc(F)cc3)nc2c1` have a reported inhibition at 1 µM of at least 90%?
Result :: n

Query :: State whether the measured inhibition at 1 µM reaches 90%, counting equality as reaching it, for `COc1cccc(-c2nc3cc(C(=O)NCCc4cccnc4)ccc3nc2Cl)c1`
Result :: n

Query :: Quick check, inhibition at 1 µM >= 90%? `O=C(NCCCn1ccnc1)c1ccc2nc(NCc3ccccc3)c(-c3ccccc3)nc2c1`
Result :: n

Query :: Could you please find out whether `COc1cccc(-c2nc3ccc(C(=O)NCCc4cccnc4)cc3nc2-c2cccc(OC)c2)c1` has inhibition at 1 µM that meets 90% or exceeds it?
Result :: y

Query :: Kindly determine if inhibition at 1 µM recorded for `O=C(NCCCc1ncc[nH]1)c1ccc2nc(C3=CCOCC3)c(-c3cccs3)nc2c1` is above or exactly 90%.
Result :: y

Query :: Could you please find out whether `O=C(NCCCn1ccnc1)c1ccc2nc(-c3cn[nH]c3)c(-c3ccccc3)nc2c1` has inhibition at 1 µM that meets 90% or exceeds it?
Result :: n

Query :: Reported inhibition at 1 µM at or above 90%? `O=C(NCCCc1ncc[nH]1)c1ccc2nc(-n3ncc4ccccc43)c(-c3ccc(F)cc3)nc2c1`
Result :: y
